These data points were gathered from PubChem BioAssay AID1446.

Test: viability loss in Ba/F3 EpoR-JAK2V617F cells – cell-based, luminescence, JAK2V617F inhibitor project, primary screen (AID 1446);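 further: cytokine-independent growth of Ba/F3 cells driven by EpoR plus mutant JAK2; 0% = DMSO-treated cells and 100% = JAK inhibitor I control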
Settings: ATP luminescence, at 5.6 µM, stronger effect = higher value
Screen size: about 220,000 compounds; about 2,400 (1.1%) were called active. The full list was thinned out, with actives kept by preference.
measured property: inhibition (%)
Please reply with the bare figure in % and do not write the unit itself.

inhibition in this record for CSc1nc(N(C)NC(=O)c2cccc(C)c2)c2ccccc2n1 : 93.6

inhibition in this record for COc1ccc(NC(=O)CN2C(=O)CSC2=O)cc1 : -1.19

inhibition in this record for COc1ccc(Nc2cc(=O)n(-c3ccccc3)c3c2c(=O)n(C)c(=O)n3C)cc1 : 0.16

inhibition in this record for Cn1cnc(C(F)(F)F)c1-c1ccc([N+](=O)[O-])cc1 : -0.95

inhibition in this record for Cc1cc(C)n(CC(O)CN(c2ccccc2)S(=O)(=O)c2ccc3ccccc3c2)n1 (stereo not given) : 0.98

inhibition in this record for CCOC(=O)c1ccc(N=C2SC(C(=O)NC)CC(=O)N2CCc2ccccc2)cc1 (stereo not given) : 1.63

inhibition in this record for Cc1cc2c(cc1C)[n+](C)cn2CC(O)COCC1CC=CCC1 (stereo not given) : 44.4

inhibition in this record for Fc1ccc2[nH]c3c(N4CCSCC4)ncnc3c2c1 : -5.13

inhibition in this record for Cc1coc(C)c1C(=O)CC1(O)C(=O)N(C)c2ccc(Cl)cc21 (stereo not given) : 2.68

inhibition in this record for c1ccc(-c2ccc3c(c2)NC(C2Nc4cc(-c5ccccc5)ccc4O2)O3)cc1 (stereo not given) : -3.19

inhibition in this record for Fc1ccc(COc2ccc(-c3nnco3)cc2)cc1 : -2.6

inhibition in this record for COc1ccc(N2CCN(C(=O)CCSCc3ccccc3F)CC2)cc1 : -2.23

inhibition in this record for Cc1nc(/N=C(\N)NC(=O)NC2CCCCC2)nc2ccccc12 : 2.92

inhibition in this record for COC(=O)CNC(=O)c1ccccc1F : -2.64

inhibition in this record for O=C(Nc1ccccc1Cl)c1ccc2nsnc2c1 : 0.05

inhibition in this record for COc1ccccc1CNC(=O)CNC(=O)c1cn(-c2ccccc2OC)c(=O)c2ccccc12 : -3.01

inhibition in this record for COc1ccc(NC(=O)Nc2ccc3nc(C)c(C)nc3c2)cc1 : -2.47

inhibition in this record for C[C@H](NC(=O)c1ccccc1Cl)C(=O)OCCOc1cccc(Cl)c1 : -3.18

inhibition in this record for C=CC[n+]1c(-c2ccc(C)cc2)csc1NNC(=O)Nc1ccccc1 : 37.6

inhibition in this record for Cc1ccc(S(=O)(=O)N(C)c2ccc(OCC(=O)NC3=NCCS3)cc2)cc1 : 4.42

inhibition in this record for C/C(=N\NC(=O)c1cccc(N2CCCC2=O)c1)c1ccc(N)cc1 : 0.87

inhibition in this record for CC(C)(C)OC(=O)NCCCCCC(=O)N/N=C/c1coc2ccccc2c1=O : 0.8

inhibition in this record for COc1ccc(Nc2cc(=O)oc3ccccc23)cc1 : 55.1

inhibition in this record for Cc1cc(N2CCN(Cc3ccc4c(c3)OCO4)CC2)n2ncnc2n1 : 4.15

inhibition in this record for COc1cccc(C(=O)Nc2ccc(N3CCCC3)cc2)c1 : 59.5

inhibition in this record for Cc1cccc(NC(=O)c2ccc([N+](=O)[O-])o2)c1 : 38.7

inhibition in this record for CCCCCCNC(=O)CSc1nccn1Cc1ccccc1 : -2.6

inhibition in this record for CN(NC(=O)c1ccccc1)c1nc2ccccc2nc1C(F)(F)F : -2.71

inhibition in this record for Cc1nc(N2CCC(C)CC2)c2c(C)c(C(=O)Nc3cc(F)ccc3C)sc2n1 : 2.17

inhibition in this record for CC(=O)N1CCN(S(=O)(=O)c2c(F)cc(F)c(Cl)c2F)CC1 : -1.72

inhibition in this record for Nn1c(SCc2ccccc2)nnc1C1CCCCC1 : -0.47

inhibition in this record for CCOc1ccc(S(=O)(=O)Nc2ccc(S(=O)(=O)Nc3cc(OC)ccc3OC)cc2)cc1 : 3.6

inhibition in this record for COc1cc(C=O)ccc1Oc1nnnn1-c1ccccc1 : 1.87

inhibition in this record for COc1ccc2nc(/N=C(\N)NC(=O)Nc3ccccc3)nc(C)c2c1 : 30.8

inhibition in this record for COc1ccc(N(C(=O)c2ccc(C)cc2)S(=O)(=O)c2cccs2)cc1 : 0.51

inhibition in this record for CCOC(=O)c1c(-c2ccc(C)cc2)csc1/N=C(\C)C1=C(O)c2ccccc2C1=O : -3.38

inhibition in this record for CC(=O)c1ccc(NC(=O)CSC(=S)N2CCCC2)cc1 : -0.78

inhibition in this record for COCCn1c(SCC(=O)c2[nH]c(C)c(C(C)=O)c2C)nc2ccccc2c1=O : 1.81

inhibition in this record for O=C(Oc1ccccc1Cl)c1ccc(N2CCOCC2)c([N+](=O)[O-])c1 : 0.46

inhibition in this record for COC(=O)N/N=C/c1cn(CCCOc2ccc(C)cc2)c2ccccc12 : -1.96

inhibition in this record for COc1ccc(/C=C2/SC(=O)N(CCCCCC(=O)Nc3ccccc3C(=O)O)C2=S)cc1 : -2.34

inhibition in this record for N#CC1(C#N)C(C(=O)C23CC4CC(CC(C4)C2)C3)C12CCOCC2 (stereo not given) : -2.53

inhibition in this record for Cc1ncc([N+](=O)[O-])n1CCOC(=O)c1ccc(Br)cc1 : -1.79

inhibition in this record for Cc1ccc(N(C(=O)c2ccc(S(=O)(=O)N(C)C)cc2)C2C=CS(=O)(=O)C2)cc1 (stereo not given) : -0.1

inhibition in this record for Cc1cccc(NC(=S)NC(=O)c2ccc(Br)o2)c1 : 1.21

* * *

Experiment: viability loss in Ba/F3 EpoR-JAK2V617F cells – cell-based, luminescence, JAK2V617F inhibitor project, primary screen (AID 1446);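 further: cytokine-independent growth of Ba/F3 cells driven by EpoR plus mutant JAK2; 0% = DMSO-treated cells and 100% = JAK inhibitor I control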
Settings: ATP luminescence, at 5.6 µM
In all, about 220,000 compounds went through this assay and about 2,400 (1.1%) were called active.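 How the source made its calls: active means inhibition above the campaign mean plus 3 SD over all tested compounds (cut at about 24% in these data); inactive means the rest.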 This is one part of a sample in which actives are shown more often than they occur.
# output must be one of true (1) (active), false (0) (inactive)

[ask] Assay result, entry COc1cc2c(cc1OC)CN(C(=O)c1ccc(S(=O)(=O)N3CCCCCC3)cc1)CC2 — outcome?
[reply] false (0)

[ask] Assay result, entry Cc1nc(CNS(=O)(=O)c2cc([N+](=O)[O-])ccc2C)cs1 — outcome?
[reply] false (0)

[ask] Assay result, entry CCN(CC)S(=O)(=O)c1ccc(N(C)Cc2cccc(OC)c2OC)nc1 — outcome?
[reply] false (0)

[ask] Assay result, entry COc1ccc(C2C(C(C)=O)=C(O)C(=O)N2CCc2c[nH]c3ccccc23)cc1 (stereo not given) — outcome?
[reply] false (0)

[ask] Assay result, entry O=C(NNC(=O)c1ccccc1[N+](=O)[O-])Nc1ccccc1C(F)(F)F — outcome?
[reply] false (0)

[ask] Assay result, entry COc1ccc(S(=O)(=O)N(CC(=O)N/N=C/c2ccccc2C(=O)O)c2ccccc2OC)cc1 — outcome?
[reply] false (0)

[ask] Assay result, entry CCC(=O)Nc1ccc2c(c1)nc(CCN1CCN(C)CC1)n2C — outcome?
[reply] false (0)

[ask] Assay result, entry O=C(c1ccc(=O)oc1)N1CCC(C(O)(c2ccccc2)c2ccccc2)CC1 — outcome?
[reply] false (0)

[ask] Assay result, entry CN(Cc1cccnc1)C(=O)c1cc(COc2ccc3ncccc3c2)on1 — outcome?
[reply] true (1)

[ask] Assay result, entry CCOc1cc(C(=O)N2CCc3cc(OC)c(OC)cc3C2)ccc1OC(F)F — outcome?
[reply] true (1)

* * *

Assay: viability loss in Ba/F3 EpoR-JAK2V617F cells – cell-based, luminescence, JAK2V617F inhibitor project, primary screen (AID 1446);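 further: cytokine-independent growth of Ba/F3 cells driven by EpoR plus mutant JAK2; 0% = DMSO-treated cells and 100% = JAK inhibitor I control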
Conditions: ATP luminescence, at 5.6 µM, stronger effect = higher value
Among all 220,000 compounds or so, about 2,400 (1.1%) were called active. The sample holds actives, similar compounds and a random draw of the others, so the mix is not that of the screen.
measured property: inhibition (%)
Please reply with the bare figure in % and do not write the unit itself.

inhibition in this record for COC(=O)Cc1ccc(N(Cc2ccccc2F)S(=O)(=O)c2ccc(Br)cc2)cc1 : -1.26

inhibition in this record for CCN1CCN(CCNC(=O)c2ccc(/C=C3/Sc4ccccc4N(Cc4cccc(C)c4)C3=O)cc2)CC1 : 4.4

inhibition in this record for CC(=O)NCCc1nc2cc(NC(=O)c3ccccc3)ccc2n1C : 3.36

inhibition in this record for CCOC(=O)N1CCN(C(=O)C2CCN(c3ncnc4c3sc3cccc(F)c34)CC2)CC1 : 43.9

inhibition in this record for C/[N+]([O-])=C\c1ccc([N+](=O)[O-])o1 : -0.25

inhibition in this record for COCCOC(=O)C1=C(C)NC(=O)CC1c1cc2c(cc1Br)OCO2 (stereo not given) : 1.76

inhibition in this record for CCOC(=O)C1CCN(c2ncnc3c2oc2ccc(Br)cc23)CC1 : 0.71

inhibition in this record for COc1ccc(C2CC(=O)Nc3cc(C)c(C)cc32)c(OC)c1OC (stereo not given) : 0.14

inhibition in this record for Cn1cc(/C=C/c2nc3ccccc3c(=O)n2-c2cccc([N+](=O)[O-])c2)c2ccccc21 : 0.27

inhibition in this record for CCOC(=O)C(=Cc1ccccc1OC)C(=O)OCC : -2.52
